# TARGET_ENTITY: human androgen receptor (Homo sapiens, UniProt P10275)
# Construct: expressed in transfected cells; host or cells: HeLa cells
# Sequence (P10275 whole entry): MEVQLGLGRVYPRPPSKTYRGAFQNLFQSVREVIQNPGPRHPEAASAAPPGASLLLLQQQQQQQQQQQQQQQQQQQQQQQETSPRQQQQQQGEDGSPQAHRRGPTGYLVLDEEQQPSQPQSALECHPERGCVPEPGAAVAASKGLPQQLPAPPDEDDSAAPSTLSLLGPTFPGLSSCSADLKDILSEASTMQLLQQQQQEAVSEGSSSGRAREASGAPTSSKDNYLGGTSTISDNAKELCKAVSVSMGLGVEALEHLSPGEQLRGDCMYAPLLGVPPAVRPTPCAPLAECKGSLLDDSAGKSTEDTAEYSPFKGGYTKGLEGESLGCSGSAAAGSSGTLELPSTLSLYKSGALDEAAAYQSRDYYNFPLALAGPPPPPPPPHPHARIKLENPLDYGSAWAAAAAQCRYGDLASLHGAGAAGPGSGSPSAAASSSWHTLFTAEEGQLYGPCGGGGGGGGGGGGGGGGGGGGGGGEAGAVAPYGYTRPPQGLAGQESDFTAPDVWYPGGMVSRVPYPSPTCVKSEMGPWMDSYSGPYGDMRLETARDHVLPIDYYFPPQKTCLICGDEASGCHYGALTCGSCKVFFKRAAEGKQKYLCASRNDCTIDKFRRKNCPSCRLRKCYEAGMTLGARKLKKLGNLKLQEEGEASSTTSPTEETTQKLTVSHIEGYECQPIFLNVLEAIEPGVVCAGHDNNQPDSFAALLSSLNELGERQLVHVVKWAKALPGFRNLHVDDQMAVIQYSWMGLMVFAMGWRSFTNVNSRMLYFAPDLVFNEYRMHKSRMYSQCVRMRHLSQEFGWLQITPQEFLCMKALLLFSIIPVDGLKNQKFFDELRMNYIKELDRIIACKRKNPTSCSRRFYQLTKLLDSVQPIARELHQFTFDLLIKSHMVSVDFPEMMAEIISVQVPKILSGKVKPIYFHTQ
# ASSAY_OVERVIEW: Androgen receptor reporter gene assay, agonist action (MMTV-Luc, pSG5-hAR and Renilla Luc vectors transfected into HeLa cells, dual-luciferase)
# Assay type: cell-based
# APPLIED_CONDITIONS: concentration showing a transcriptional activity five times that without compound; tested at 1, 10, 100, 1000 and 10000 nmol/L

MOLECULE | FI5 value
CC(C)(O)C(=O)Nc1ccc([N+](=O)[O-])c(C(F)(F)F)c1 [Hydroxyflutamide, hydroxyflutamide] | 1000 nM
